- Tested on: KRAS G12C mutant NCI-H358 cells
- method.notes: Cell proliferation inhibition experiment, 3D spheroid, CellTiter-Glo, NCI-H358
- Type: cell-based, human
- condition.label: Homo sapiens, NCI-H358, 120 h, NCI-H358 (KRAS G12C mutant) 3D spheroid, 5 days with compound, CellTiter-Glo; read-out: H358 IC50
test.readout: IC50 (nM)

Example compounds with recorded IC50:
1) C=CC(=O)N1CCN2C(=O)c3c(O[C@@H]4CCN(C)C4)nc(-c4c(O)cccc4F)c(Cl)c3OC[C@H]2C1
287
2) C=CC(=O)N1CCN2C(=O)c3c(N4CC(O)CC4(C)C)nc(-c4c(F)cccc4OC)c(F)c3OC[C@H]2C1 (single isomer, unassigned)
13.1
3) C=CC(=O)N1CCN2C(=O)c3c(N4CC(=O)N(C)CC4C)nc(-c4c(O)cccc4F)c(Cl)c3OC[C@H]2C1 (stereo partly drawn)
3
4) C=CC(=O)N1CCN2C(=O)c3c(N4CCOCC45CCC5)nc(-c4c(O)cccc4F)c(Cl)c3OC[C@H]2C1
19
5) C=CC(=O)N1CCN2C(=O)c3c(O[C@H]4CCN(C)C4)nc(-c4c(O)cccc4F)c(Cl)c3OC[C@H]2C1
51
6) C=CC(=O)N1CCN2C(=O)c3c(N4C[C@@H](N5CC(F)(F)C5)CC4(C)C)nc(-c4ccccc4F)c(Cl)c3OC[C@H]2C1 (single isomer, unassigned)
7.8
7) C=CC(=O)N1CCN2C(=O)c3c(N4C[C@@H](N5CCN(C)CC5)CC4(C)C)nc(-c4c(O)cccc4F)c(Cl)c3OC[C@H]2C1 (single isomer, unassigned)
0.5

a = C=CC(=O)N1CCN2C(=O)c3c(N4CC(O)CC4(C)C)nc(-c4c(O)cccc4F)c(C)c3OC[C@H]2C1 (single isomer, unassigned)
b = C=CC(=O)N1CCN2C(=O)c3c(cc(-c4c(O)cccc4F)nc3N3CCOC(C)(C)C3)OC[C@H]2C1
Consider entries a and b . Which has the numerically lower IC50? Please identify the chosen entry by its label.
a
(a: 5 nM, b: 69 nM)
